# protein melting temperature values compiled below
Tested on: McpC ligand-binding domain (Salmonella Typhimurium SL1344)
Assay Remarks: protein melting temperature (Tm) in presence of compound (degrees C); higher = more thermal stabilisation (possible ligand binding)
Cond: Biolog plate: PM01; compound stock concentration: 10-20 mM, 2 uL in 10 uL reaction
Reply briefly: the number, and no unit.

Use these answered entries as a reference point.
{"columns": ["Compound", "protein melting temperature"],
 "data": [
  ["OC[C@@H](O)[C@@H](O)[C@H](O)[C@H](O)CO [D-Mannitol]", 44.7],
  ["CCC(=O)C(=O)O [a-Ketobutyric acid]", 43.9],
  ["NCCc1ccc(O)cc1 [Tyramine]", 43.9]
]}

INPUT: What value of protein melting temperature has been recorded for this entry: O=C(O)[C@H]1OC(O)[C@H](O)[C@@H](O)[C@H]1O (stereo partly drawn) [D-Galacturonic acid]
OUTPUT: 44.4

INPUT: What measured protein melting temperature goes with O=C1CC[C@@H](C(=O)O)O1 [a-Hydroxyglutaric acid-g-Lactone] ?
OUTPUT: 45.3

INPUT: Entry NCCO [2-Aminoethanol] has what protein melting temperature?
OUTPUT: 44.3

INPUT: Consider the compound shown here: NCC(=O)N[C@@H](CCC(=O)O)C(=O)O [Gly-Glu] What is its recorded protein melting temperature?
OUTPUT: 44.9

INPUT: I would be grateful if you could share the reported protein melting temperature for OC[C@H]1O[C@H](OC[C@H]2OC(O)[C@H](O)[C@@H](O)[C@@H]2O)[C@H](O)[C@@H](O)[C@H]1O (stereo partly drawn) [D-Melibiose] .
OUTPUT: 44.7
